Tested on: KKUM213
method.description: Cytotoxicity against human KKUM213 cells assessed as inhibition of cell growth incubated for 48 hrs by MTT assay
Format: functional, cell-based
condition.description: KKU-213A
endpoint: IC50 (µM)
Hi! Could you send only the number? It should be in µM, unit omitted.

smiles.representation: CCCCCCCCCCCCCCC[C@@H]1OC(=O)C=C[C@@H]1O
endpoint: IC50
measurement.units: µM
reported.measurement: 17
//
smiles.representation: CCCCCCCCCCCCCCC[C@H]1CC=CC(=O)O1
endpoint: IC50
measurement.units: µM
reported.measurement: 18.2
//
smiles.representation: CCCCCC/C=C\CCCCCCC[C@H]1CC=CC(=O)O1
endpoint: IC50
measurement.units: µM
reported.measurement: 22.5

Lab note: next compound to report on.
// field: IC50; key: `CCCCCCCCCCCCCCC[C@@H](O)[C@@H]1C=CC(=O)O1` ; value = 51.7
